As shown below, each of these compounds has a reported EC50 value.
- target: human TPO-R (transfected Ba/F3 cells) (Homo sapiens)
- Construct: Murine IL-3 dependent Ba/F3 cells were transfected with full length human TPO-R; expressed in transfected cells; host or cells: murine Ba/F3 cells
- method: Thrombopoietin dependent cell proliferation assay (MTT), TPO-R transfected Ba/F3 cells
- Assay type: cell-based
- condition.summary: Table 4, cyclized compounds; read-out: EC50 (nM) Proliferation
Where a SMILES comes first, the peptide text is derived from it.

{"columns": ["compound", "EC50"],
 "data": [
  ["CC[C@H](C)[C@@H]1NC(=O)[C@H](Cc2c[nH]c3ccccc23)NC(=O)[C@H](CCC(=O)O)NC(=O)[C@H](CCCNC(=N)N)NC(=O)[C@H](CC(C)C)NC(=O)[C@H]([C@@H](C)O)NC(=O)[C@@H]2CCCN2C(=O)CNC(=O)[C@H](CC(=O)O)NC(=O)[C@H](C)NC(=O)[C@H](N)C(C)(C)SSC[C@H](C(N)=O)NC(=O)[C@H](Cc2ccccc2)NC(=O)[C@H](CO)NC1=O (HELM PEPTIDE1{[CC(C)(S[*:3])[C@@H](N)C(=O)[*:2]].A.D.G.P.T.L.R.E.W.I.S.F.[dC].[am]}$PEPTIDE1,PEPTIDE1,1:R3-14:R3$$$V2.0)", "< 200000 nM"],
  ["CC[C@H](C)[C@@H]1NC(=O)[C@H](Cc2c[nH]c3ccccc23)NC(=O)[C@H](CCC(=O)O)NC(=O)[C@H](CCCNC(=N)N)NC(=O)[C@H](CC(C)C)NC(=O)[C@H]([C@@H](C)O)NC(=O)[C@@H]2CCCN2C(=O)CNC(=O)[C@H](CC(=O)O)NC(=O)[C@H](C)NC(=O)[C@@H](N)CCSSC[C@@H](C(N)=O)NC(=O)[C@H](Cc2ccccc2)NC(=O)[C@H](CO)NC1=O (HELM PEPTIDE1{[N[C@@H](CCS[*:3])C(=O)[*:2]].A.D.G.P.T.L.R.E.W.I.S.F.C.[am]}$PEPTIDE1,PEPTIDE1,1:R3-14:R3$$$V2.0)", "< 500 nM"]
]}

* * *

- target: human TPO-R (transfected Ba/F3 cells) (Homo sapiens, UniProt P40238)
- Construct: Murine IL-3 dependent Ba/F3 cells were transfected with full length human TPO-R; expressed in transfected cells; host or cells: murine Ba/F3 cells
- Sequence (P40238 26-635): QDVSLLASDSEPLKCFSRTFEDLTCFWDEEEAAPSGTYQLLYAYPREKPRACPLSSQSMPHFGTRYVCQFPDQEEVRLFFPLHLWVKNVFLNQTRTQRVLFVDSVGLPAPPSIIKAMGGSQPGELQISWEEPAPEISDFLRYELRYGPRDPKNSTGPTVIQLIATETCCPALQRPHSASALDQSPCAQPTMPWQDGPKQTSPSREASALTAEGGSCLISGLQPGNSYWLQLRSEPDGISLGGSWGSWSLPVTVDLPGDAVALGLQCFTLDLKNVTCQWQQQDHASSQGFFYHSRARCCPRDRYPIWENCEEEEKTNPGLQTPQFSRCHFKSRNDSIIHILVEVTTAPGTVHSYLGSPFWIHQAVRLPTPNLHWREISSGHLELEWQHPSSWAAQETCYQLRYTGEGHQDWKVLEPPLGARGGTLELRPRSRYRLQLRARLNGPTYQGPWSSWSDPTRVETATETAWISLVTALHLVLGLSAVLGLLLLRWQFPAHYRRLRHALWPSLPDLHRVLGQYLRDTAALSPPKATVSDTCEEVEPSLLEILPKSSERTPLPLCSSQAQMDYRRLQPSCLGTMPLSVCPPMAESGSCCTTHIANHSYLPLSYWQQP
- method: Thrombopoietin dependent cell proliferation assay (MTT), TPO-R transfected Ba/F3 cells
- Type: cell-based
- condition.summary: Table 4, cyclized compounds; read-out: EC50 (nM) Proliferation
Where a SMILES comes first, the peptide text is derived from it.
measurement.name: EC50

{"columns": ["compound", "measurement.name", "recorded.value"],
 "data": [
  ["CC[C@H](C)[C@@H]1NC(=O)[C@H](Cc2c[nH]c3ccccc23)NC(=O)[C@H](CCC(=O)O)NC(=O)[C@H](CCCNC(=N)N)NC(=O)[C@H](CC(C)C)NC(=O)[C@H]([C@@H](C)O)NC(=O)[C@@H]2CCCN2C(=O)CNC(=O)[C@H](CC(=O)O)NC(=O)[C@H](C)NC(=O)[C@@H](N)C(C)(C)SSC(C)(C)[C@@H](C(N)=O)NC(=O)[C@H](Cc2ccccc2)NC(=O)[C@H](CO)NC1=O (HELM PEPTIDE1{[Pen].A.D.G.P.T.L.R.E.W.I.S.F.[Pen].[am]}$PEPTIDE1,PEPTIDE1,1:R3-14:R3$$$V2.0)", "EC50", "< 200000 nM"]
]}

* * *

- target: human TPO-R (transfected Ba/F3 cells) (Homo sapiens, UniProt P40238)
- Construct: Murine IL-3 dependent Ba/F3 cells were transfected with full length human TPO-R; expressed in transfected cells; host or cells: murine Ba/F3 cells
- method: Thrombopoietin dependent cell proliferation assay (MTT), TPO-R transfected Ba/F3 cells
- Format: cell-based
- condition.summary: Table 4, cyclized compounds; read-out: EC50 (nM) Proliferation
Where a SMILES comes first, the peptide text is derived from it.
measurement.name: EC50

{"columns": ["compound", "measurement.name", "recorded.value"],
 "data": [
  ["CC[C@H](C)[C@@H]1NC(=O)[C@H](Cc2c[nH]c3ccccc23)NC(=O)[C@H](CCC(=O)O)NC(=O)[C@H](CCCNC(=N)N)NC(=O)[C@H](CC(C)C)NC(=O)[C@H]([C@@H](C)O)NC(=O)[C@@H]2CCCN2C(=O)CNC(=O)[C@H](CC(=O)O)NC(=O)[C@H](C)NC(=O)[C@@H](N)CCCCNC(=O)CC[C@@H](C(N)=O)NC(=O)[C@H](Cc2ccccc2)NC(=O)[C@H](CO)NC1=O (HELM PEPTIDE1{K.A.D.G.P.T.L.R.E.W.I.S.F.E.[am]}$PEPTIDE1,PEPTIDE1,1:R3-14:R3$$$V2.0)", "EC50", "< 200000 nM"],
  ["CC[C@H](C)[C@@H]1NC(=O)[C@H](Cc2c[nH]c3ccccc23)NC(=O)[C@H](CCC(=O)O)NC(=O)[C@H](CCCNC(=N)N)NC(=O)[C@H](CC(C)C)NC(=O)[C@H]([C@@H](C)O)NC(=O)[C@@H]2CCCN2C(=O)CNC(=O)[C@H](CC(=O)O)NC(=O)[C@H](C)NC(=O)[C@H](N)CSSC[C@H](C(N)=O)NC(=O)[C@H](Cc2ccccc2)NC(=O)[C@H](CO)NC1=O (HELM PEPTIDE1{[dC].A.D.G.P.T.L.R.E.W.I.S.F.[dC].[am]}$PEPTIDE1,PEPTIDE1,1:R3-14:R3$$$V2.0)", "EC50", "< 200000 nM"],
  ["CC[C@H](C)[C@@H]1NC(=O)[C@H](Cc2c[nH]c3ccccc23)NC(=O)[C@H](CCC(=O)O)NC(=O)[C@H](CCCNC(=N)N)NC(=O)[C@H](CC(C)C)NC(=O)[C@H]([C@@H](C)O)NC(=O)[C@@H]2CCCN2C(=O)CNC(=O)[C@H](CC(=O)O)NC(=O)[C@H](C)NC(=O)[C@@H](N)C(C)(C)SSC[C@@H](C(N)=O)NC(=O)[C@H](Cc2ccccc2)NC(=O)[C@H](CO)NC1=O (HELM PEPTIDE1{[Pen].A.D.G.P.T.L.R.E.W.I.S.F.C.[am]}$PEPTIDE1,PEPTIDE1,1:R3-14:R3$$$V2.0)", "EC50", "< 500 nM"],
  ["CC[C@H](C)[C@@H]1NC(=O)[C@H](Cc2c[nH]c3ccccc23)NC(=O)[C@H](CCC(=O)O)NC(=O)[C@H](CCCNC(=N)N)NC(=O)[C@H](CC(C)C)NC(=O)[C@H]([C@@H](C)O)NC(=O)[C@@H]2CCCN2C(=O)CNC(=O)[C@H](CC(=O)O)NC(=O)[C@H](C)NC(=O)CSC(C)(C)[C@@H](C(N)=O)NC(=O)[C@H](Cc2ccccc2)NC(=O)[C@H](CO)NC1=O (HELM PEPTIDE1{[O=C(C[*:3])[*:2]].A.D.G.P.T.L.R.E.W.I.S.F.[Pen].[am]}$PEPTIDE1,PEPTIDE1,1:R3-14:R3$$$V2.0)", "EC50", "< 200000 nM"]
]}

* * *

- target: human TPO-R (transfected Ba/F3 cells) (Homo sapiens)
- Construct: Murine IL-3 dependent Ba/F3 cells were transfected with full length human TPO-R; expressed in transfected cells; host or cells: murine Ba/F3 cells
- method: Thrombopoietin dependent cell proliferation assay (MTT), TPO-R transfected Ba/F3 cells
- Format: cell-based
- condition.summary: Table 4, cyclized compounds; read-out: EC50 (nM) Proliferation
Where a SMILES comes first, the peptide text is derived from it.
measurement.name: EC50

{"columns": ["compound", "measurement.name", "recorded.value"],
 "data": [
  ["CC[C@H](C)[C@@H]1NC(=O)[C@H](Cc2c[nH]c3ccccc23)NC(=O)[C@H](CCC(=O)O)NC(=O)[C@H](CCCNC(=N)N)NC(=O)[C@H](CC(C)C)NC(=O)[C@H]([C@@H](C)O)NC(=O)[C@@H]2CCCN2C(=O)CNC(=O)[C@H](CC(=O)O)NC(=O)[C@H](C)NC(=O)CSC[C@@H](C(N)=O)NC(=O)[C@H](Cc2ccccc2)NC(=O)[C@H](CO)NC1=O (HELM PEPTIDE1{[O=C(C[*:3])[*:2]].A.D.G.P.T.L.R.E.W.I.S.F.C.[am]}$PEPTIDE1,PEPTIDE1,1:R3-14:R3$$$V2.0)", "EC50", "< 500 nM"],
  ["CC[C@H](C)[C@@H]1NC(=O)[C@H](Cc2c[nH]c3ccccc23)NC(=O)[C@H](CCC(=O)O)NC(=O)[C@H](CCCNC(=N)N)NC(=O)[C@H](CC(C)C)NC(=O)[C@H]([C@@H](C)O)NC(=O)[C@@H]2CCCN2C(=O)CNC(=O)[C@H](CC(=O)O)NC(=O)[C@H](C)NC(=O)CSCC[C@@H](C(N)=O)NC(=O)[C@H](Cc2ccccc2)NC(=O)[C@H](CO)NC1=O (HELM PEPTIDE1{[O=C(C[*:3])[*:2]].A.D.G.P.T.L.R.E.W.I.S.F.[O=C([C@H](CCS[*:3])N[*:1])[*:2]].[am]}$PEPTIDE1,PEPTIDE1,1:R3-14:R3$$$V2.0)", "EC50", "< 200000 nM"],
  ["CCCC1SC[C@@H](C(N)=O)NC(=O)[C@H](Cc2ccccc2)NC(=O)[C@H](CO)NC(=O)[C@H]([C@@H](C)CC)NC(=O)[C@H](Cc2c[nH]c3ccccc23)NC(=O)[C@H](CCC(=O)O)NC(=O)[C@H](CCCNC(=N)N)NC(=O)[C@H](CC(C)C)NC(=O)[C@H]([C@@H](C)O)NC(=O)[C@@H]2CCCN2C(=O)CNC(=O)[C@H](CC(=O)O)NC(=O)[C@H](C)NC1=O (stereo partly drawn) (HELM PEPTIDE1{A.D.G.P.T.L.R.E.W.I.S.F.C.[am]}|CHEM1{[CCCC(C(=O)[*:1])[*:2]]}$PEPTIDE1,CHEM1,1:R1-1:R1|PEPTIDE1,CHEM1,13:R3-1:R2$$$V2.0)", "EC50", "< 500 nM"]
]}
